# test: viability gain of MRP-1-high H69AR cells under doxorubicin, pilot screen, MRP-1 activator project, CellTiter-Glo, duplicate (AID 807);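 note: compound pretreatment 18-22 h then 72 h combined with doxorubicin; 0% = doxorubicin alone and 100% = vehicle without doxorubicin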
# condition.label: H69AR viability with doxorubicin, CellTiter-Glo luminescence; at 10 µM; active compounds read high
I'd be grateful if you could share measured viability increase for these entries.
Respond with the bare value in %.

Request: Look up viability increase: "O=C(Nc1ccc(N2CCCC2)c(Cl)c1)c1ccc(Br)o1"
Result: -4.13

Request: Look up viability increase: "CC(C)N(CCc1ccncc1)C(=O)Nc1ccc(F)cc1"
Result: -2.27

Request: Look up viability increase: Cc1cccc(Cn2c(N3CCCCC3C)nc3c2c(=O)[nH]c(=O)n3C)c1 (stereo not given)
Result: -5.08

Request: Look up viability increase: Cc1ccc2oc(=O)c3cnn(CC(=O)NC4CCCCC4C)c3c2c1 (stereo not given)
Result: -2.9

Request: Look up viability increase: "O=S(=O)(NC1CCCCC1)c1cccc(-c2nnc(-c3ccccc3)o2)c1"
Result: 0.12

Request: Look up viability increase: "COc1ccccc1NC(=O)Cn1cnc2c(oc3ccccc32)c1=O"
Result: -1.93

Request: Look up viability increase: CCOC(=O)N1CCN(C(=O)CS(=O)Cc2nc(-c3cccc(C)c3)oc2C)CC1 (stereo not given)
Result: -1.34

Request: Look up viability increase: "Cc1ccc(Nc2cc(C)nc3nc(C)nn23)cc1"
Result: -3.16

Request: Look up viability increase: "O=C(NC1CCCCC1)C1CCN(S(=O)(=O)c2cccc3cccnc23)CC1"
Result: -0.83

Request: Look up viability increase: "COc1ccc2oc(C(=O)C3CC3)c(NC(=O)CCCN3C(=O)c4ccccc4C3=O)c2c1"
Result: -3.63

Request: Look up viability increase: O=C1C2C3C=CC(C3)C2C(=O)N1CCN1CCN(S(=O)(=O)c2ccc3ccccc3c2)CC1 (stereo not given)
Result: -5.03

Request: Look up viability increase: "CCCN(CCC)S(=O)(=O)c1ccc(C(=O)N2CCC(=O)c3ccccc32)cc1"
Result: -5.63

Request: Look up viability increase: "CCOc1ccc(N(CC(=O)O)S(=O)(=O)c2cccnc2)cc1"
Result: 1.18

Request: Look up viability increase: "Cc1cc2ccccc2c(=O)n1CC(=O)NCC(=O)N(C)Cc1ccccc1"
Result: -0.97

Request: Look up viability increase: "NC(=O)C1CCN(C(=O)C2CCN(S(=O)(=O)c3ccccc3)CC2)CC1"
Result: -1.4

Request: Look up viability increase: "CS(=O)(=O)N(Cc1ccc(C(=O)NCc2ccco2)cc1)c1ccccc1"
Result: -3.9

Request: Look up viability increase: "Cc1nc(-n2nnc3ccccc32)c2c3c(sc2n1)CCCC3"
Result: -2.54

Request: Look up viability increase: "O=C(NC1CCCCC1)c1ccc(S(=O)(=O)N2CCOCC2)cc1"
Result: 0.17

Request: Look up viability increase: "O=C(O)c1ccc(F)c(S(=O)(=O)Nc2ccccc2)c1"
Result: 1.08

Request: Look up viability increase: O=C1CC(c2nc3ccccc3[nH]2)CN1Cc1ccccc1 (stereo not given)
Result: -1.02

Request: Look up viability increase: "CCOc1ccc(N(CC(=O)NC2CCCCCC2)S(=O)(=O)c2c(C)noc2C)cc1"
Result: -6.44

Request: Look up viability increase: "CCN(Cc1ccncc1)C(=O)c1cccc(S(=O)(=O)N2CCOCC2)c1"
Result: -2.89

Request: Look up viability increase: "Cn1c(Cn2c(=O)sc3ccccc32)nnc1SCc1ccccc1F"
Result: -0.13

Request: Look up viability increase: CC(=O)N(c1ccc(C)cc1)C1C=CS(=O)(=O)C1 (stereo not given)
Result: -0.41

Request: Look up viability increase: "COc1ccc(-c2cn3c(C)c(C(=O)N4CCc5ccccc5C4)sc3n2)cc1"
Result: -7.22

* * *

I'd be grateful if you could share measured viability for these entries.
# test: growth suppression of beta-catenin knockout HCT116, pilot screen, human colon tumor cells (AID 823);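 note: 0% = wells killed by 20 µM Hyamine and 100% = untreated DMSO cell wells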
# condition.label: CellTiter-Glo, 60 h, at 10 µM, active compounds read low
Results filed as inconclusive are left out.
Respond with the bare value in %.

Request: Look up viability: "COc1ccc(N(CC(=O)NCc2ccccc2OC)S(=O)(=O)c2c(C)nn(C)c2C)cc1"
Result: 99.6

Request: Look up viability: OCC1(C2=NOC(O)(C(F)(F)F)C2)CCCCC1 (centres undefined)
Result: 101

Request: Look up viability: "C=CCn1c(CCNC(=O)C(C)(C)C)nc2ccccc21"
Result: 103

Request: Look up viability: CCOC(=O)C1CCCN(C(=O)CC(C)c2ccccc2)C1 (centres undefined)
Result: 104

Request: Look up viability: CC(=O)NC(C)(C)C1CC=C(C)/C(=N\O)C1 (centres undefined)
Result: 104

Request: Look up viability: "NC(=O)c1ccsc1NC(=O)c1cccs1"
Result: 104

Request: Look up viability: CN(C)C(CNC(=O)c1cccs1)c1cccnc1 (centres undefined)
Result: 105

Request: Look up viability: "CN(C)/C=C1/Sc2ccccc2C1=O"
Result: 103

Request: Look up viability: CC1CCCN(C(=O)c2ccc3c(c2)C(=O)N(CCC2=CCCCC2)C3=O)C1 (centres undefined)
Result: 87.5

Request: Look up viability: O=C1CC(c2ccccc2)CN1C(=O)c1ccccc1 (centres undefined)
Result: 104

Request: Look up viability: "CCCCCN=C(C)c1c(O)c2ccccc2oc1=O"
Result: 94.8

Request: Look up viability: "COc1ccccc1-c1cc(N)n(S(=O)(=O)c2ccc(F)c(C)c2)n1"
Result: 55

Request: Look up viability: "O=C(CN1CCN(c2ccccn2)CC1)Nc1cccc(C(F)(F)F)c1"
Result: 97.9

Request: Look up viability: CCOC(=O)N1CCC(NC(=O)C(NC(=O)C2CCCCC2)C(C)C)CC1 (centres undefined)
Result: 93

Request: Look up viability: O=C1CC(c2cccs2)CC(O)=C1C=NCCN1CCNCC1 (centres undefined)
Result: 98.9

Request: Look up viability: CC(=O)C1C(c2ccccc2Cl)NC(=O)NC1(O)C(F)(F)F (centres undefined)
Result: 112

Request: Look up viability: CC(=O)NC(C)c1nc2ccccc2n1Cc1ccccc1F (centres undefined)
Result: 102

Request: Look up viability: "O=C(O)[C@H](Cc1ccccc1)N1Cc2ccccc2C1=O"
Result: 95.3

Request: Look up viability: "Cc1c(C(=O)NCc2cccnc2)sc2nc(-c3ccc(F)cc3)cn12"
Result: 77.3

* * *

# test: growth suppression of PTEN-deleted HCT116, pilot screen, cell-based, HCT116 clonal line, CellTiter-Glo (AID 824);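 note: 0% = 20 µM Hyamine control and 100% = vehicle cell control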
# condition.label: 60 h, at 10 µM, active compounds read low
Inconclusive results are not listed.
quantity: viability (%)
Respond with the bare value in %.

Request: Look up viability: COc1ccccc1C1(CC(=O)O)CCOC(C)(C)C1 (stereo not drawn)
Result: 92.2

Request: Look up viability: "Cc1cccc(OCCCCCNCCO)c1"
Result: 94.6

Request: Look up viability: "CCc1nnc(NC(=O)c2ccc(S(=O)(=O)N(CC)CC)cc2)s1"
Result: 90.9

* * *

# test: Restrictive medium S. cerevisiae growth inhibition, OD615, pilot screen of yeast lifespan reduction project, restrictive growth control (AID 706);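 note: modified DeaD lifespan yeast strain shifted to restrictive glucose medium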
# condition.label: OD615, 48 h, at 10 µM, active compounds read high
quantity: growth inhibition (%)
Respond with the bare value in %.

Request: Look up growth inhibition: "COc1ccc(-n2c(Cc3cc(=O)[nH]c(=O)[nH]3)nnc2SCC(=O)N2CCC(C)CC2)cc1"
Result: 4.4

Request: Look up growth inhibition: COC(=O)C(C)NC(=O)C1CCCN1S(=O)(=O)c1cc(C)c(Cl)cc1C (stereo not drawn)
Result: -6.72

Request: Look up growth inhibition: "CCOC(=O)c1ccc(NC(=O)CSc2nc3c(c(=O)n2-c2ccccc2OC)SCC3)cc1"
Result: -14.6

Request: Look up growth inhibition: "Cc1nc2c3c4c(sc3n3c(SCC(=O)NCc5ccco5)nnc3n2n1)COC(C)(C)C4"
Result: 3.31

Request: Look up growth inhibition: "Cc1c(C(=O)Nc2ccncc2)sc2nc(-c3ccc(F)cc3)cn12"
Result: 11.7

Request: Look up growth inhibition: "O=C(Nc1cccnc1)c1ccc(CN2CCc3ccccc3C2)cc1"
Result: -5.93

Request: Look up growth inhibition: "Nc1c(C(=O)NCc2cccnc2)sc(=S)n1-c1ccccc1"
Result: 25.7

Request: Look up growth inhibition: CC1CCC(NC(=O)Cn2c(=O)[nH]c3ccsc3c2=O)CC1 (stereo not drawn)
Result: -3.85

Request: Look up growth inhibition: "NC(=O)c1ccsc1NC(=O)C1CC1"
Result: 0.175

Request: Look up growth inhibition: "O=C(NC1CCCCCC1)C1CCN(C(=O)Cc2ccccc2)CC1"
Result: -9.52

Request: Look up growth inhibition: "O=C(CSc1nc(-c2ccncc2)nn1CC(=O)N1CCCCC1)NC1CCCC1"
Result: -16.2

Request: Look up growth inhibition: "COc1ccc(-n2nnc3c(=O)n(CC(=O)N4CCCc5ccccc54)cnc32)cc1"
Result: -1.47

Request: Look up growth inhibition: "COc1ccc(S(=O)(=O)Cc2ccc(C(=O)N3CCCC3)o2)cc1"
Result: -2.15

Request: Look up growth inhibition: "N=c1n(CCOc2ccccc2)c2ccccc2n1CCN1CCOCC1"
Result: 6.28

Request: Look up growth inhibition: CC(C)(C)NC(=O)c1ccc(NC(=O)C2COc3ccccc3O2)cc1 (stereo not drawn)
Result: -6.04

Request: Look up growth inhibition: CN1CCN(C(=O)c2c(NC(=O)c3ccco3)sc3c2CCC(C(C)(C)C)C3)CC1 (stereo not drawn)
Result: 1.13

Request: Look up growth inhibition: CC12CCC(C(=O)Nc3ccccc3N3CCOCC3)(CC1=O)C2(C)C (stereo not drawn)
Result: -14.9

Request: Look up growth inhibition: "CCN1C(=S)SC(=O)C1=C1C=C(C)N(CCO)C(C)=C1"
Result: 23.4

Request: Look up growth inhibition: "O=C(c1cccc(C(=O)N2CCN(c3ccccc3F)CC2)c1)N1CCN(c2ccccc2F)CC1"
Result: -6.43

Request: Look up growth inhibition: "CCOC(=O)c1ccc(S(=O)(=O)N2CCN(CCC#N)CC2)cc1"
Result: 0.63

Request: Look up growth inhibition: "Cc1ccc(O)c(C(=O)CC(=O)c2cccc(F)c2)c1"
Result: 50

Request: Look up growth inhibition: "CCc1nnc(NC(=O)CSc2nccn2-c2cccc(C)c2C)s1"
Result: 32.5

Request: Look up growth inhibition: "CCN(Cc1ccccc1)S(=O)(=O)c1ccc(C(=O)Nc2nnc(C3CC3)o2)cc1"
Result: -18.6

Request: Look up growth inhibition: CCOCCCNC(=O)C(c1ccc(Cl)cc1)N1CCC2(CC1)OCCO2 (stereo not drawn)
Result: -20.9

Request: Look up growth inhibition: "COC(=O)CN1C(=O)COc2ccc(Cl)cc21"
Result: -4.81

Request: Look up growth inhibition: COc1ccc(-n2nc3c(c2NC(=O)c2ccc(Br)cc2)CS(=O)C3)cc1 (stereo not drawn)
Result: 4.82

Request: Look up growth inhibition: "OCCN1CCN(Cc2cc(Br)cc(Br)c2O)CC1"
Result: -14

Request: Look up growth inhibition: "CCOCCn1c(-c2ccc(OC)cc2)nc2ccccc21"
Result: -10.7

Request: Look up growth inhibition: "COc1ccccc1C(=O)n1nc(C)cc1C"
Result: -0.83

Request: Look up growth inhibition: Oc1c(C(c2ccccc2)N2CCCCC2)sc2ncnn12 (stereo not drawn)
Result: -3.96

Request: Look up growth inhibition: "COc1ccc(-c2c(C)oc3c(CN4CCN(C)CC4)c(O)ccc3c2=O)cc1"
Result: -13.7

Request: Look up growth inhibition: "CCOc1cc(/C=N/O)cc(Br)c1OC"
Result: -18.2

Request: Look up growth inhibition: "CCCCc1ccc(-c2nc(-c3ccncc3)no2)cc1"
Result: -3.25

Request: Look up growth inhibition: "Clc1nc2sccn2c1/C=N/n1cnc2ccccc21"
Result: 33.8

Request: Look up growth inhibition: "COc1cccc(NC(=O)c2ccncc2)c1"
Result: -11

Request: Look up growth inhibition: CCCCC(NC(C)=O)c1nc2ccccc2n1CCCC (stereo not drawn)
Result: -12.2

Request: Look up growth inhibition: COc1ccc(CC(=O)N2CC3(C)CC2CC(C)(C)C3)cc1OC (stereo not drawn)
Result: -2.29

Request: Look up growth inhibition: Cc1c(NS(=O)(=O)CC23CCC(CC2=O)C3(C)C)c(=O)n(-c2ccccc2)n1C (stereo not drawn)
Result: -4.44

Request: Look up growth inhibition: "COc1ccc(-c2nc(SC)n(C)c(=O)c2C#N)cc1OC"
Result: -12.2

Request: Look up growth inhibition: CCOC(=O)C1C(=O)CC(C)(O)C(C(=O)OCC)C1/C=C/c1ccccc1 (stereo not drawn)
Result: 2.66

Request: Look up growth inhibition: "CCSc1nc2c(c(=O)n1-c1ccc(F)cc1)SCC2"
Result: -6.39

Request: Look up growth inhibition: "Cn1cnnc1SCC(=O)c1ccco1"
Result: -3.4

Request: Look up growth inhibition: COc1ccccc1NC(=O)C1C2C=CC3(CN(Cc4cccnc4)C(=O)C13)O2 (stereo not drawn)
Result: 4.22

Ref: PubChem BioAssay
